# Test system: MDA-MB-468 breast
# assayInfo: NCI tumour cell line growth inhibition, 48 h; in the data active means GI50 below about 0.43 µM; inactive means the rest
Give one outcome, nothing more. List: active, inactive

These recorded examples may help you get a feel for the data.
compound: C=C1C(=O)O[C@H]2[C@H]1CC/C(COC(=O)N[C@H](Cc1c[nH]c3ccccc13)C(=O)OC)=C\CC[C@@]1(C)O[C@@H]21
category: inactive

compound: CN(C)C/C=C/C(=O)Nc1cc2c(Nc3cccc(Cl)c3F)ncnc2cc1OCCOC(F)F
category: active

compound: O=C(CC1Sc2ccccc2NC1=O)NNc1ccc(F)cc1 (stereo unspecified)
category: inactive

compound: O=c1[nH]c2ccccc2n1C1CCN(CCOc2ccccc2)CC1
category: inactive

compound: CC(C)(C)OC(=O)N1Cc2cc3ccccc3nc2C1CO (stereo unspecified)
category: inactive

compound: C[C@@H](Oc1cc(-c2cnn(C3CCNCC3)c2)cnc1N)c1c(Cl)cc(F)cc1Cl
category: inactive

compound: OCC1OC(n2cnc3c(NCc4ccco4)ncnc32)C(O)C1O (stereo unspecified)
category: inactive

compound: O=C(Nc1ccc(Cl)cc1)N1CCN(c2ccc3nncn3n2)CC1
category: inactive

compound: COc1ccccc1NC(=O)N/N=C/c1c[nH]c2ccccc12
category: active

compound: CCCCC[C@H]1C/C=C2/C(=O)C(Cl)=C[C@@H]2C/C=C\CCCC(=O)O1
category: active

As a next step, examine the compound that follows.
**Q:** Called result for COc1ccc2nc3ccccc3c(NCc3ccccc3)c2c1
**A:** inactive

---

# Test system: RXF 393 renal
# assayInfo: NCI tumour cell line growth inhibition, 48 h
metric: GI50

Example compounds with recorded GI50:
sampleSmiles: COc1ccc2ncc(C#Cc3cncc(C(=O)Nc4ccc(CN5CCN(C)CC5)c(C(F)(F)F)c4)c3)n2n1
GI50: 1310 nM
--
sampleSmiles: COc1sc(/C=N/NC(=O)c2[nH]c3ccc(Br)cc3c2-c2ccccc2)cc1Br
GI50: 4270 nM
--
sampleSmiles: COc1ccccc1NC(=O)N/N=C/c1c[nH]c2ccccc12
GI50: 1660 nM

Moving on to another compound below.
**Q:** Which GI50 is listed for O=C(NN1C(=O)/C(=C/C=C/c2ccc([N+](=O)[O-])o2)SC1=S)c1cccc(O)c1 ?
**A:** 1250 nM

---

The following compounds are shown together with reported GI50 values.
# Tested on: UO-31 renal
# assayInfo: NCI tumour cell line growth inhibition, 48 h

Example compounds with recorded GI50:
sampleSmiles: COc1sc(/C=N/NC(=O)c2[nH]c3ccc(Br)cc3c2-c2ccccc2)cc1Br
metric: GI50
testValue: 4.21 µM
//
sampleSmiles: COc1ccccc1NC(=O)N/N=C/c1c[nH]c2ccccc12
metric: GI50
testValue: 3.28 µM
//
sampleSmiles: O=C(NN1C(=O)/C(=C/C=C/c2ccc([N+](=O)[O-])o2)SC1=S)c1cccc(O)c1
metric: GI50
testValue: 1.41 µM

**Q:** Which GI50 is listed for Fc1ccc(N2CC(Cn3c(C(F)(F)F)cc4c(Cl)ncnc43)C2)c(F)c1 ?
**A:** 2.68 µM

**Q:** Which GI50 is listed for COc1ccc(S(=O)(=O)Nc2ccc(-c3ccc4c(c3)NC(=O)/C4=C\c3ccc[nH]3)cc2)cc1OC ?
**A:** 12.9 µM

**Q:** Which GI50 is listed for COc1ccc2ncc(C#Cc3cncc(C(=O)Nc4ccc(CN5CCN(C)CC5)c(C(F)(F)F)c4)c3)n2n1 ?
**A:** 3.23 µM

---

# Test system: MDA-MB-468 breast
# assayInfo: NCI tumour cell line growth inhibition, 48 h
Note to self: values exactly at 9 µM are fulfilled. So TGI at or above 9 µM is fulfilled, below is not fulfilled.

**Q:** Form field: TGI at least 9 µM? Entry: O=c1[nH]c2ccccc2n1C1CCN(CCOc2ccccc2)CC1
**A:** fulfilled

---

# Test system: HCT-15 colon
# assayInfo: NCI tumour cell line growth inhibition, 48 h
The following compounds are shown together with reported TGI values.
Return type: number; implicit unit µM.

sampleSmiles: COc1ccccc1NC(=O)N/N=C/c1c[nH]c2ccccc12
TGI [µM]: 12
--
sampleSmiles: O=C(NN1C(=O)/C(=C/C=C/c2ccc([N+](=O)[O-])o2)SC1=S)c1cccc(O)c1
TGI [µM]: 0.371

Moving on to another compound below.
**Q:** Which TGI is listed for COc1ccc2ncc(C#Cc3cncc(C(=O)Nc4ccc(CN5CCN(C)CC5)c(C(F)(F)F)c4)c3)n2n1 ?
**A:** 9.8

---

# Test system: HL-60(TB) leukemia
# assayInfo: NCI tumour cell line growth inhibition, 48 h; in the data active = GI50 below about 0.43 µM; inactive = the rest
Give one outcome, nothing more. List: label 1 for active, label 0 for inactive

sampleSmiles: COc1sc(/C=N/NC(=O)c2[nH]c3ccc(Br)cc3c2-c2ccccc2)cc1Br
category: label 0
--
sampleSmiles: COc1ccc(S(=O)(=O)Nc2ccc(-c3ccc4c(c3)NC(=O)/C4=C\c3ccc[nH]3)cc2)cc1OC
category: label 0
--
sampleSmiles: COc1ccc2ncc(C#Cc3cncc(C(=O)Nc4ccc(CN5CCN(C)CC5)c(C(F)(F)F)c4)c3)n2n1
category: label 1

As a next step, examine the compound that follows.
**Q:** Called result for Fc1ccc(N2CC(Cn3c(C(F)(F)F)cc4c(Cl)ncnc43)C2)c(F)c1
**A:** label 0

---

The following compounds are shown together with reported TGI values.
# System: HT29 colon
# assayInfo: NCI tumour cell line growth inhibition, 48 h
Return type: number; implicit unit µM.

sampleSmiles: COc1ccc2ncc(C#Cc3cncc(C(=O)Nc4ccc(CN5CCN(C)CC5)c(C(F)(F)F)c4)c3)n2n1
targetEntity: HT29 colon
metric: TGI
testValue: 9.45
//
sampleSmiles: COc1ccccc1NC(=O)N/N=C/c1c[nH]c2ccccc12
targetEntity: HT29 colon
metric: TGI
testValue: 10.6

Moving on to another compound below.
**Q:** Which TGI is listed for Fc1ccc(N2CC(Cn3c(C(F)(F)F)cc4c(Cl)ncnc43)C2)c(F)c1 ?
**A:** 16.3

---

The following compounds are shown together with reported TGI values.
# Test system: NCI-H460 lung
# assayInfo: NCI tumour cell line growth inhibition, 48 h
Return type: number; implicit unit µM.

Example compounds with recorded TGI:
sampleSmiles: COc1sc(/C=N/NC(=O)c2[nH]c3ccc(Br)cc3c2-c2ccccc2)cc1Br
targetEntity: NCI-H460 lung
TGI (µM): 12.4
--
sampleSmiles: O=C(NN1C(=O)/C(=C/C=C/c2ccc([N+](=O)[O-])o2)SC1=S)c1cccc(O)c1
targetEntity: NCI-H460 lung
TGI (µM): 3.71
--
sampleSmiles: COc1ccc(S(=O)(=O)Nc2ccc(-c3ccc4c(c3)NC(=O)/C4=C\c3ccc[nH]3)cc2)cc1OC
targetEntity: NCI-H460 lung
TGI (µM): 11.3

Moving on to another compound below.
**Q:** Which TGI is listed for Fc1ccc(N2CC(Cn3c(C(F)(F)F)cc4c(Cl)ncnc43)C2)c(F)c1 ?
**A:** 14.3

---

# Tested on: HCT-116 colon
# assayInfo: NCI tumour cell line growth inhibition, 48 h
The following compounds are shown together with reported TGI values.
Return type: number; implicit unit µM.

Example compounds with recorded TGI:
sampleSmiles: Fc1ccc(N2CC(Cn3c(C(F)(F)F)cc4c(Cl)ncnc43)C2)c(F)c1
TGI (µM): 3.93
//
sampleSmiles: COc1ccc2ncc(C#Cc3cncc(C(=O)Nc4ccc(CN5CCN(C)CC5)c(C(F)(F)F)c4)c3)n2n1
TGI (µM): 5.55

Moving on to another compound below.
**Q:** Which TGI is listed for O=C(NN1C(=O)/C(=C/C=C/c2ccc([N+](=O)[O-])o2)SC1=S)c1cccc(O)c1 ?
**A:** 0.63

---

# Test system: MDA-MB-468 breast
# assayInfo: NCI tumour cell line growth inhibition, 48 h
Note to self: values exactly at 4 µM are YES. So TGI at or above 4 µM is YES, below is NO.

These recorded examples may help you get a feel for the data.
compound: CC(C)(C)OC(=O)N1Cc2cc3ccccc3nc2C1CO (stereo not given)
category: YES
//
compound: CCN(CC)CCCC(C)Nc1ccnc(/C=C/c2ccc(Cl)cc2)c1 (stereo not given)
category: NO
//
compound: CC[C@H](CO)Nc1ccc2ncc(C#Cc3cncc(C(=O)Nc4ccc(CN5CCN(C)CC5)c(C(F)(F)F)c4)c3)n2n1
category: NO
//
compound: CN(c1ccc(F)cc1)S(=O)(=O)c1ccc(-c2cnc(C3CC3)o2)cc1
category: YES
//
compound: CCCCC[C@H]1C/C=C2/C(=O)C(Cl)=C[C@@H]2C/C=C\CCCC(=O)O1
category: NO

**Q:** Form field: TGI at least 4 µM? Entry: NC(Cc1c[nH]c2cccc(F)c12)C(=O)O (stereo not given)
**A:** YES

**Q:** Form field: TGI at least 4 µM? Entry: O=C(CC1Sc2ccccc2NC1=O)NNc1ccc(F)cc1 (stereo not given)
**A:** YES

**Q:** Form field: TGI at least 4 µM? Entry: COc1cc(NCCC2CCCCN2)c2ncccc2c1OC (stereo not given)
**A:** YES

**Q:** Form field: TGI at least 4 µM? Entry: CC[Si](CC)(CC)OC1[C@@H](O[Si](CC)(CC)CC)[C@@H](CNC(=O)NC)O[C@H]1n1cnc2c(NC(=O)Nc3ccccc3)ncnc21 (stereo not given in full)
**A:** YES
